assayedSystem: CLK3 kinase (Homo sapiens)
experimentalProtocol: CLK3 kinase activity assay (Z-lyte FRET)
conditionDetails: Z-lyte Ser/Thr 18 peptide, 156 μM ATP, 1 h at room temperature
compounds and their reported EC50
A number alone suffices; assume nM.

Record excerpt, results attached:
> print(dat)
                                    compound               assayedsystem  measurementunit  testvalue
 1  CN1CCN(c2ccnc3[nH]c(-c4n[nH]c5ncc(-c6cn[nH]c6)cc45)cc23)CC1 [compound 497]  CLK3 kinase (Homo sapiens)               nM        678
 2  CN(C)c1cncc(-c2cc3c(-c4cc5cnccc5[nH]4)n[nH]c3cn2)c1 [compound 441]  CLK3 kinase (Homo sapiens)               nM        538
 3  CS(=O)(=O)NCc1cc(F)cc(-c2nccc3[nH]c(-c4n[nH]c5ccc(-c6cncc(CN7CCCCC7)c6)nc45)cc23)c1 [compound 536]  CLK3 kinase (Homo sapiens)               nM         79
 4  O=C(Nc1cccnc1)c1n[nH]c2ccc(-c3cncc(CN4CCS(=O)(=O)CC4)c3)cc12 [compound 100]  CLK3 kinase (Homo sapiens)               nM         37
 5  Fc1cccc(-c2cccc3[nH]c(-c4n[nH]cc4/C=C/c4cncc(CN5CCCC5)c4)nc23)c1 [compound 26]  CLK3 kinase (Homo sapiens)               nM        492
 6  CN1CC=C(c2cc(C(=O)Nc3cc4cc(-c5cncc(NC(C)(C)C)n5)cnc4cn3)ccn2)CC1 [compound 612]  CLK3 kinase (Homo sapiens)               nM         12
 7  CN(C)CCNc1cc(F)cc(-c2cncc3[nH]c(-c4n[nH]c5ncc(-c6cccnc6)cc45)nc23)c1 [compound 278]  CLK3 kinase (Homo sapiens)               nM         36
 8  CC(C)CC(=O)Nc1ccncc1NC(=O)c1n[nH]c2ccc(-c3cncc(CN4CCCCC4)c3)cc12 [compound 85]  CLK3 kinase (Homo sapiens)               nM       1800
 9  CN1CCN(c2nccc3[nH]c(-c4n[nH]c5cnc(-c6cncc(NC(=O)C7CCCCC7)c6)cc45)cc23)CC1 [compound 483]  CLK3 kinase (Homo sapiens)               nM        303
10  O=C(CC1CCNCC1)Nc1cncc(-c2ccc3[nH]nc(-c4cc5c(N6CCCCC6)nccc5[nH]4)c3n2)c1 [compound 462]  CLK3 kinase (Homo sapiens)               nM         48

Would you kindly share the measured EC50 for CC(C)Nc1cncc(-c2ccc3[nH]nc(-c4nc5c(-c6ccoc6)cncc5[nH]4)c3n2)c1 [compound 239] ?
87

Suppose we examine the compound CCNCc1cncc(-c2ccc3[nH]nc(-c4nc5c(-c6cc(F)cc(NCCN(C)C)c6)nccc5[nH]4)c3n2)c1 [compound 285] ; what EC50 value has been reported?
90

Endpoint output: EC50 of COc1ccc(NC(=O)c2n[nH]c3ccc(-c4cncc(CN5CCCC5)c4)cc23)cn1 [compound 71] . Value?
109

Bench note: what EC50 did O=C(Nc1cnccc1NC(=O)C1CC1)c1n[nH]c2ccc(-c3cccnc3)cc12 [compound 63] show?
343

Fill in the blank: the reported EC50 of CN(C)Cc1cncc(-c2cc3c(-c4cc5c(N6CCN(C)CC6)nccc5[nH]4)n[nH]c3cn2)c1 [compound 491] is ____.
1940

###

assayedSystem: UniProtKB P49760
Sequence (P49760 whole entry): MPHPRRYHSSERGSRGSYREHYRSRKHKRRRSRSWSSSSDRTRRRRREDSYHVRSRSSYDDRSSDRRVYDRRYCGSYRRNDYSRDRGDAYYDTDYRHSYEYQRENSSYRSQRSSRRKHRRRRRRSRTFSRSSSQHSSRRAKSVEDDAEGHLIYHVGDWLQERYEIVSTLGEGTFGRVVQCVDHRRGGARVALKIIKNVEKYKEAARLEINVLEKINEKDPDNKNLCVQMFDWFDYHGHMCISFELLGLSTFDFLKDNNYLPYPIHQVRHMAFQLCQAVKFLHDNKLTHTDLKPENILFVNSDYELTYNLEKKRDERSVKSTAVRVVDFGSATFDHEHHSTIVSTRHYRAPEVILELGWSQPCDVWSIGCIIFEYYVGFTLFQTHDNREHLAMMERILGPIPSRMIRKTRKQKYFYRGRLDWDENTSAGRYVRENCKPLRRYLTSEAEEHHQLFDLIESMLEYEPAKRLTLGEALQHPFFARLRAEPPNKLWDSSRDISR
experimentalProtocol: CLK2 kinase activity assay (Z-lyte FRET);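 note: FRET read-out as coumarin to fluorescein emission ratio, unphosphorylated peptide as 0% and phosphorylated peptide as 100% controls, duplicate reactions, non-linear regression fit of dose-response curves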
Format: biochemical
conditionDetails: Z-lyte Ser/Thr 6 peptide, 60 μM ATP, 1 h at room temperature
Mark Condition met only when EC50 stays strictly below 5 nM. Values equal to the cut-off are Condition not met.

> print(dat)
                                   compound              label
1  CCCCC(=O)Nc1cncc(-c2ccc3[nH]nc(-c4cc5c(N6CCCCC6)nccc5[nH]4)c3n2)c1 [compound 459]  Condition not met

Is it true that EC50 reported for Cc1cc(C(=O)Nc2cc3cc(-c4cnn(C)c4)ccc3cn2)cc(N2CCN(C)CC2)n1 [compound 548] is less than 5 nM?
Condition met

Consider CC(C)(C)C(=O)Nc1cncc(-c2cc3c(-c4nc5c(-c6ccc(F)s6)nccc5[nH]4)n[nH]c3cn2)c1 [compound 263] . Does its EC50 lie strictly below 5 nM?
Condition not met

Dear reviewer, please state whether Fc1cccc(-c2cncc3[nH]c(-c4n[nH]c5ncc(-c6cncc(CN7CCCCC7)c6)cc45)cc23)c1 [compound 313] has EC50 strictly beneath 5 nM.
Condition not met

###

assayedSystem: CLK3 kinase (Homo sapiens, UniProt P49761)
Sequence (P49761 whole entry): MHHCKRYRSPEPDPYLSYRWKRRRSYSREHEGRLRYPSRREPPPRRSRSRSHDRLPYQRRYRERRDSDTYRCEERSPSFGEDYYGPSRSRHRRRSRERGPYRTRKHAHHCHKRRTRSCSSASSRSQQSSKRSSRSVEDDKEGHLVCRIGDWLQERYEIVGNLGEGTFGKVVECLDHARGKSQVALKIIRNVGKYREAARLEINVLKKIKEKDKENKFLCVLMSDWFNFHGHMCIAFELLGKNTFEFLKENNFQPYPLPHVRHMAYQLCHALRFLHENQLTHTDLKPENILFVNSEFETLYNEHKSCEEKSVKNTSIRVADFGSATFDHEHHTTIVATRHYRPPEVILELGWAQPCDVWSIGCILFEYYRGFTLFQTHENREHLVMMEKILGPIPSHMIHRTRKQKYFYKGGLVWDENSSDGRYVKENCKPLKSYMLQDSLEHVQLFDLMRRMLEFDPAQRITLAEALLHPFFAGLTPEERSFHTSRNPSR
experimentalProtocol: CLK3 kinase activity assay (Z-lyte FRET);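 note: kinase activity read as coumarin/fluorescein emission ratio by FRET, unphosphorylated peptide as 0% and phosphorylated peptide as 100% control, values from non-linear regression of dose-response curves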
Assay type: biochemical
conditionDetails: Z-lyte Ser/Thr 18 peptide, 156 μM ATP, 1 h at room temperature
Would you mind classing the entries by EC50? Ranges: I = under 40 nM, II = from 40 nM up to 200 nM, III = 200 nM and over

Known results for compounds:
> print(dat)
                               smilesstring                             assayedsystem  label
1  O=C(Nc1c[nH]nc1-c1nc2c(-c3cccc(F)c3)cccc2[nH]1)c1cccnc1  CLK3 kinase (Homo sapiens, UniProt P49761)    III
2  CC(C)CC(=O)Nc1cncc(-c2ccc3[nH]nc(-c4nc5c(-c6cc(F)cc(CNS(C)(=O)=O)c6)cncc5[nH]4)c3c2)c1  CLK3 kinase (Homo sapiens, UniProt P49761)     II
3  Nc1cncc(-c2cc3c(-c4cc5c(-c6ccccc6F)nccc5[nH]4)n[nH]c3cn2)c1  CLK3 kinase (Homo sapiens, UniProt P49761)     II
4  CN1CCN(c2nccc3[nH]c(-c4n[nH]c5ccc(-c6cncc(NC(=O)CC7CCNCC7)c6)cc45)cc23)CC1  CLK3 kinase (Homo sapiens, UniProt P49761)    III
5  c1csc(-c2cncc3[nH]c(-c4n[nH]c5ncc(-c6cncc(CNCC7CCCC7)c6)cc45)nc23)c1  CLK3 kinase (Homo sapiens, UniProt P49761)     II

State the band of Cn1cncc1-c1ccc2cnc(NC(=O)c3ccc(F)cc3)cc2c1
I

// return the class label for CN1CCCCN(C)c2nccc3[nH]c(nc23)-c2n[nH]c3ccc(cc23)-c2cncc(c2)C1
I

Which bin, given its EC50, does CCNCc1cncc(-c2ccc3[nH]nc(-c4cc5cccnc5[nH]4)c3n2)c1 occupy?
III

Which band does Cn1ncc(-c2ccc3cnc(NC(=O)c4ccnc(N5CCOCC5)c4)cc3c2)c1CN1CCOCC1 fall in?
I

Please classify: CC(C)(C)CC(=O)Nc1cncc(-c2ccc3[nH]nc(-c4nc5ccncc5[nH]4)c3n2)c1
III

Exam item: assign CS(=O)(=O)NCc1cc(F)cc(-c2cncc3[nH]c(-c4n[nH]c5cnc(-c6cncc(NC(=O)C7CCC7)c6)cc45)cc23)c1 to the correct category.
II

Bin? CN1CCN(c2ccnc3[nH]c(-c4n[nH]c5ccc(-c6cncc(N)c6)cc45)cc23)CC1
II

Categorize the following entry: Cc1cn(-c2cncc3[nH]c(-c4n[nH]c5ccc(-c6cncc(NC(=O)C7CCC7)c6)nc45)nc23)cn1
III

Which class is correct for the following compound? Cn1cncc1-c1ccc2cnc(NC(=O)c3ccnc(N4CCN(C5CC5)CC4)c3)cc2c1
I

Consider Cc1ccncc1-c1ccc2[nH]nc(-c3cc4ccncc4[nH]3)c2c1 . To which EC50 class does it belong?
I

State the class of the compound shown: CC(C)n1cc(C(=O)Nc2cc3cc(-c4cncn4C(C)C)ccc3cn2)cn1
I

Determine which band this compound sits in: CC(C)CC(=O)Nc1cncc(-c2ccc3[nH]nc(-c4cc5c(-c6cc(F)cc(CNS(C)(=O)=O)c6)nccc5[nH]4)c3n2)c1
I

Consider CN(C)Cc1cncc(-c2ccc3[nH]nc(-c4nc5c(-c6cccc(F)c6)cccc5[nH]4)c3n2)c1 . To which EC50 class does it belong?
II

Form field 'band' for CCCC(=O)Nc1cncc(-c2ccc3[nH]nc(-c4nc5c(N6CCCCC6)cncc5[nH]4)c3c2)c1
II

Field: class (EC50) — entry: CC(C)Nc1cncc(-c2ccc3[nH]nc(-c4cc5c(-c6cccnc6)cncc5[nH]4)c3c2)c1
III

Class? Entry: Cc1ccc(-c2nccc3[nH]c(-c4n[nH]c5ccc(-c6cncc(N)c6)cc45)nc23)s1
II

Textbook exercise: identify the category of the compound given here, CCNCc1cncc(-c2ccc3[nH]nc(-c4nc5c(-c6cc(F)cc(NCCN(C)C)c6)ccnc5[nH]4)c3n2)c1 , according to its measured value.
II

Hey, which category is O=C(Nc1cncc(-c2ccc3[nH]nc(-c4cc5c(-c6cccnc6)cncc5[nH]4)c3c2)c1)c1ccccc1 in, do you know?
II

Given O=C(Nc1ccc(N2CCCC2)nc1)c1n[nH]c2ccc(-c3cncc(CN4CCC4)c3)cc12 , name the class its EC50 places it in.
II

Please indicate the class for CCCCC(=O)Nc1cncc(-c2ccc3[nH]nc(-c4nc5c(-c6ccoc6)cncc5[nH]4)c3n2)c1 based on its EC50.
III

Dear colleague, I would appreciate it if you could identify the bin for CN1CCC(Oc2ccc(C(=O)Nc3cc4cc(-c5cnn(C)c5)ccc4cn3)cc2)CC1 and reply at your convenience.
I

Would you mind sorting CCC(=O)Nc1cncc(-c2cnc3[nH]nc(-c4cc5c(-c6cccnc6)cccc5[nH]4)c3c2)c1 into the appropriate category?
III

Each recorded value in this set is attributed to patent US20230000842A1.
